pIC50, LIMK1KD (Homo sapiens): measured values
In simple prose, pIC50 is minus the logarithm base ten of a concentration in moles per litre.

Cn1cc(-c2[nH]c3cc(NC(=O)[C@H](N)C4CCCCC4)cc4c3c2C=NNC4=O)cn1 ... 8.36

# get_value(readout= pIC50, system= LIMK1KD (Homo sapiens)) for CNC(=O)c1cc(Oc2ccc(NC(=O)Nc3cc(C(C)(C)C)nn3-c3ccc4ncccc4c3)c(F)c2)ccn1 [DCC-2036 (Rebastinib), Rebastinib]
7.12

Query for LIMK1KD (Homo sapiens): what pIC50 does the record show for CC(C)(C)c1nc(-c2cccc(NS(=O)(=O)c3c(F)cccc3F)c2F)c(-c2ccnc(N)n2)s1 ?
7.85
